test system: Fibroblast; assay: Multiplex assay against human fibroblast; assay type: toxicity, cell-based; conditions: 48 h, 1 µM, compound concentration 1 uM, replicate 1
experimental.readout: Population Mitochondria Different-Phenotype (%)
Numbers only, in %.

molecule	numeric.value
CCCCC[C@H](O)/C=C/[C@H]1[C@H](O)CC(=O)[C@@H]1CCCCCCC(=O)O [ALPROSTADIL]	4
CN(C)C/C=C/C(=O)Nc1ccc(C(=O)N2CCCC(Nc3ncc(Cl)c(-c4c[nH]c5ccccc45)n3)C2)cc1 (configuration not stated)	20

Dear colleague, could you send me Population Mitochondria Different-Phenotype (%) for each of the items below? Thanks.
1. COc1cc2nc(N3CCN(C(=O)COc4c(OC)cccc4C(C)C)CC3)nc(N)c2cc1OC.Cl.Cl
2. CCC(=O)OCC(=O)[C@@]1(OC(=O)CC)[C@@H](C)C[C@H]2[C@@H]3CCC4=CC(=O)C=C[C@]4(C)[C@@]3(Cl)[C@@H](O)C[C@@]21C [BECLOMETHASONE DIPROPIONATE]
3. O=C(O)CCC/C=C\CC1C(O)CC(O)C1/C=C/C(O)COc1cccc(Cl)c1 (configuration not stated) [CLOPROSTENOL]
4. COc1c(Nc2ccc(S(C)(=O)=O)nc2C)ncnc1OC1CCN(C(=O)OC(C)C)CC1 [ADP-597]
5. Cc1cc(NC(=O)NCCN2CCC(O)(Cc3ccccc3)CC2)c2ccccc2n1 [PALOSURAN]

11
15
2
4
2
